Reference source: ChEMBL document CHEMBL4351008

system: MCF7; assay: Antiproliferative activity against human MCF7 cells incubated for 48 hrs by MTT assay; format: functional, cell-based; details: MCF7, 48 h
readout-type: IC50

Cc1ccc2nc(Nc3nc(Nc4ccc(S(N)(=O)=O)cc4)ncc3F)sc2c1 = 24.5 µM
CS(=O)(=O)c1ccc(Nc2nccc(Nc3nc4ccc(F)cc4s3)n2)cc1 = > 60 µM
Cc1cnc(Nc2ccc([N+](=O)[O-])cc2)nc1Nc1nc2ccccc2s1 = > 50 µM
COc1ccc(Nc2ncc(C)c(Nc3nc4ccccc4s3)n2)cc1 = > 50 µM
NS(=O)(=O)c1ccc(Nc2nccc(Nc3nc4ccc(F)cc4s3)n2)cc1 = 10.9 µM

Problem: What value of IC50 has been recorded for this entry: CS(=O)(=O)c1ccc(Nc2nccc(Nc3nc4ccc(Cl)cc4s3)n2)cc1
Solution: > 50 µM

Problem: Further, for CS(=O)(=O)c1ccc(Nc2ncc(F)c(Nc3nc4ccc(Cl)cc4s3)n2)cc1 ?
Solution: > 50 µM

Problem: Further, for CS(=O)(=O)c1ccc(Nc2nccc(Nc3nc4ccccc4s3)n2)cc1 ?
Solution: 10.6 µM

Problem: Further, for Cc1ccc2nc(Nc3nc(Nc4ccc(S(N)(=O)=O)cc4)ncc3C)sc2c1 ?
Solution: > 50 µM

Problem: Further, for Cc1ncc(-c2ccnc(Nc3ccc(S(C)(=O)=O)cc3)n2)n1C(C)C ?
Solution: 10.7 µM
